Target: GPR119 (Homo sapiens, UniProt Q8TDV5)
Construct: expressed in transfected cells
Sequence (Q8TDV5 1-335): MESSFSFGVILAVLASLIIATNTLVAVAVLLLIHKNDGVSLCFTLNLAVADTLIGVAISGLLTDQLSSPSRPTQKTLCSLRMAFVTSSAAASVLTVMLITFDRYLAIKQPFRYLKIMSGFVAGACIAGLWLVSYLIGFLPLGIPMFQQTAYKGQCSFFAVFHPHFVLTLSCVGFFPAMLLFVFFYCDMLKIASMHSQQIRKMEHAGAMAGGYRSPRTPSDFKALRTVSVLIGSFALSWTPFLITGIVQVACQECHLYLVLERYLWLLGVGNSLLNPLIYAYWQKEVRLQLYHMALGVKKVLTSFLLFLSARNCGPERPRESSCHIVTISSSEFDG
Experiment: Stimulation of cAMP in CHO cell line stably expressing GPR119 (HTRF cAMP assay)
Type: cell-based
Details: GPR119 stably expressing CHO cells, 30 minutes, relative to maximal activity (100%) of 5-Ethyl-2-{4-[4-(4-tetrazol-1-yl-phenoxymethyl)-thiazol-2-yl]-piperidin-1-yl}-pyrimidine
Record form. Attribute: % Activity at 3 μM Compound. Fill in for each entry.
Give bare numbers, in %.

Below: 5 compounds and their reported % Activity at 3 μM Compound.
{"chemical-string": "CC(C)(C)OC(=O)N1CCC(c2cc(COc3ccc(-n4cnnn4)cc3F)ccn2)CC1", "readout-label": "% Activity at 3 μM Compound", "unit-descriptor": "%", "readout-number": 73}
{"chemical-string": "CCc1cnc(N2CCC(c3cccc(COc4ccc(-n5cnnn5)cc4F)n3)CC2)nc1", "readout-label": "% Activity at 3 μM Compound", "unit-descriptor": "%", "readout-number": 73}
{"chemical-string": "CC(C)(C)OC(=O)N1CCC(c2cccc(COc3ccc(S(C)(=O)=O)cc3F)n2)CC1", "readout-label": "% Activity at 3 μM Compound", "unit-descriptor": "%", "readout-number": 59}
{"chemical-string": "Fc1cc(-n2cnnn2)ccc1OCc1cccc(C2CCN(c3ncc(C(F)(F)F)cn3)CC2)n1", "readout-label": "% Activity at 3 μM Compound", "unit-descriptor": "%", "readout-number": 63}
{"chemical-string": "CC(C)(C)OC(=O)N1CCC(c2cccc(OCc3ccc(S(C)(=O)=O)cc3)c2)CC1", "readout-label": "% Activity at 3 μM Compound", "unit-descriptor": "%", "readout-number": 61}

Each compound below has a reported value. Please supply its % Activity at 3 μM Compound.
1. CC(C)(C)OC(=O)N1CCC(c2cccc(COc3ccc(-n4cnnn4)cc3F)n2)CC1
2. CCc1cnc(N2CCC(c3cccc(OCc4ccc(S(C)(=O)=O)cc4)c3)CC2)nc1
3. CC(C)c1noc(C(=O)N2CCC(c3cccc(COc4ccc(S(C)(=O)=O)cc4F)n3)CC2)n1
4. CC(C)(C)OC(=O)N1CCC(c2nccc(COc3ccc(-n4cnnn4)cc3F)n2)CC1

Reply:
1: 61; 2: 59; 3: 33; 4: 70
